# Tested on: CD2F1 mice, L1210 leukemia ip, survival T/C
# PROTOCOL_TEXT: NCI In Vivo Anticancer Drug Screen. Data for tumor model L1210 Leukemia (intraperitoneal) in CD2F1 (CDF1) mice
# CONDITION_SUMMARY: endpoint: mean survival time; dose: 50.0 mg/kg/injection; schedule: Q04DX003 (ip); vehicle: saline with Tween-80; higher = longer survival
Toxic doses and inconclusive results are not listed.
MEASUREMENT_TYPE: T/C

Query: For `CCCCCCCCCCCCCCN1CCCN(CCCCCCCCCCCCCC)CC1` , what is its reported T/C?
Response: 93 % of control

Query: Note, next up: `CCc1nc2cc(C)c(C)cc2[nH]1`
Response: 89 % of control

Query: Note, next up: `O=c1oc(-c2ccc(Cl)cc2)nc2cc(Cl)ccc12`
Response: 93 % of control

Query: Note, next up: CNC(=O)OC(C)CC(O)(C(F)(F)F)C(F)(F)F (stereo not given)
Response: 98 % of control

Query: Note, next up: `NC(N)=N/N=C/c1ccc(Cl)c(Cl)c1`
Response: 94 % of control

Query: Note, next up: `CN(C)Cc1cc(C(C)(C)C)c(O)c(C(C)(C)C)c1`
Response: 108 % of control

Query: Note, next up: `C[N+](C)(CCO)Cc1ccccc1`
Response: 100 % of control

Query: Note, next up: `[Cl][Pt+2][Cl].[NH-]CCc1ccccc1.[NH-]CCc1ccccc1`
Response: 106 % of control

Query: Note, next up: `NC(=O)c1cc(N2CC2)c([N+](=O)[O-])cc1[N+](=O)[O-]`
Response: 97 % of control

Query: Note, next up: `Oc1cccc2c1NCCC2`
Response: 98 % of control

Reference for the values: PubChem BioAssay AID256
